# procedure_details: in vivo;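 further: Single-dose crossover across four periods with one-week washout, plasma drug levels quantified by LC-MS/MS in positive ESI mode, lower quantification limit 0.2 ng/mL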
# settings: both, Beagle, dog, plasma, other: supralingual, 1 mg
value_type: MRT last (h)
One number for each entry, in h.

[ask] Consider the molecule Cc1nc2n(c(=O)c1CCN1CCC(c3noc4cc(F)ccc34)CC1)CCCC2 [risperidone] and give its recorded MRT last.
[reply] 1.5

---

# procedure_details: in vivo
# settings: both, Beagle, dog, plasma, other: supralingual, 1 mg
value_type: MRT inf (h)
Give bare numbers, in h.

[ask] Consider the compound Cc1nc2n(c(=O)c1CCN1CCC(c3noc4cc(F)ccc34)CC1)CCCC2 and give its recorded MRT inf.
[reply] 1.73

Source listed as paper PMC7008171.
